# protocol-summary: yeast display, Sf9 membrane polyspecificity reagent, FACS + sequencing; frameworks hold sequencing errors
quantity-name: polyreactivity (PSR sort gate)

Worked cases, answers included:
QVQVVESGGGLVQAGGSLRLSCAASGRIFNYNAMGWYRQAPGKERELVAAITRSGGSTYYADSVKGRFTISRDNAKNTVFLQMNSLKPEDTAVYYCNKRYIPWAYDYWGQGTQVTVSS : high polyreactivity
QVQLVESGGGLVQAGGSLRLSCAASGRIFYYYDMGWYRQAPGKERELVAAITYSDSSTYADSVKGRFTISRDNAKNTVYLQMNSLKPEDTAVYYCAADYVYPGVRLEMDYWGQGTQVTVSS : low polyreactivity
QVQLVESGGGLVQAGGSLRLSCAASGRIFYYYVMGWYRQAPGKERELVAVIDWSGGSTYYADSVKGRFTISRDNAKNTVYLQMNSLKPEDTAVYYCAKVWLNFSLAYEDYDYWGQGTQVTVSS : low polyreactivity
QVQLVESGGGLVQAGGSLRLSCAASGRIFIGNAMGWYRQAPGKERELVAAITWSGDDSTYYADSVKGRFTISRDNAKITVYLQMNSLKTEDTAVYYCAAYSYYYEYNYWGQGTQVTVSS : low polyreactivity

# next sequence below
Value of measured polyreactivity (PSR sort gate) for the entry QVQLVESVGGLVQAGGSLRLTCAACGVTFSYNTMGWYRQAPGKERELVAAISRSGGRTYYADSVKGRFTISRDNAKNTVYLQMNSLKPEDTAVYYCARYSVTGFGANSGPEMDYWGHGTQVTVSS : high polyreactivity

Data provenance is the nanobody polyreactivity screen of Harvey et al. (2022).
